// data source = ChEMBL document CHEMBL1201862

Measured GI50 of individual entries
- System: SW-620
- Test Description: NCI tumour cell line growth inhibition, 48 h
Active and inactive are the calls of the source. No stated cut-off is given here; in the data, active = GI50 up to about 1.1 µM and inactive = higher.

Solved entries (count: 6):
Specify GI50 for CN1C(=O)C2CCC(=O)N2c2cccnc21 (centres undefined) , system SW-620.
> 100 µM (inactive)

Specify GI50 for CC(C)(C)c1cc(-c2ccc(-c3cc(C(C)(C)C)c(O)c(C(C)(C)C)c3)cc2)cc(C(C)(C)C)c1O , system SW-620.
> 100 µM (inactive)

Specify GI50 for COc1cc2c(cc1OC)C(OC)N(C)c1c-2ccc2cc3c(cc12)OCO3 (centres undefined) , system SW-620.
0.571 µM (active)

Specify GI50 for Cc1nc2cccc([N+](=O)[O-])c2c(NCCCN(C)C)c1C , system SW-620.
29.4 µM (inactive)

Specify GI50 for Cc1cccc2c(N)c3cccc(C(=O)NCCNCCN)c3nc12 , system SW-620.
8.02 µM (inactive)

Specify GI50 for CCOC1=C2C(C)(CCC3[C@@]4(C)C=CC(=O)C(C)(C)C4CC(O)[C@@]23C)C(c2ccoc2)C1=O (some centres undefined) , system SW-620.
17.2 µM (inactive)

---
Specify GI50 for Cc1ccnc(NC(=S)Nc2ccc([N+](=O)[O-])cc2)c1 , system SW-620.
> 100 µM (inactive)

Specify GI50 for Cc1ccc(-c2nnc(CCCCCCCCc3nnc(-c4ccc(C)cc4O)n3N)n2N)c(O)c1 , system SW-620.
> 100 µM (inactive)

Specify GI50 for C[C@@H](c1ccccc1)n1c(N)c(C#N)c2ccc([N+](=O)[O-])cc2c1=O , system SW-620.
19.1 µM (inactive)

Specify GI50 for O=C(Nc1ccc(Br)c2ccccc12)c1ccc2ccccc2c1O , system SW-620.
2.26 µM (inactive)
